target of assay: T1, PC4 (UniProt Q6UW60 114-708, limits assumed)
T1 sequence (looked up): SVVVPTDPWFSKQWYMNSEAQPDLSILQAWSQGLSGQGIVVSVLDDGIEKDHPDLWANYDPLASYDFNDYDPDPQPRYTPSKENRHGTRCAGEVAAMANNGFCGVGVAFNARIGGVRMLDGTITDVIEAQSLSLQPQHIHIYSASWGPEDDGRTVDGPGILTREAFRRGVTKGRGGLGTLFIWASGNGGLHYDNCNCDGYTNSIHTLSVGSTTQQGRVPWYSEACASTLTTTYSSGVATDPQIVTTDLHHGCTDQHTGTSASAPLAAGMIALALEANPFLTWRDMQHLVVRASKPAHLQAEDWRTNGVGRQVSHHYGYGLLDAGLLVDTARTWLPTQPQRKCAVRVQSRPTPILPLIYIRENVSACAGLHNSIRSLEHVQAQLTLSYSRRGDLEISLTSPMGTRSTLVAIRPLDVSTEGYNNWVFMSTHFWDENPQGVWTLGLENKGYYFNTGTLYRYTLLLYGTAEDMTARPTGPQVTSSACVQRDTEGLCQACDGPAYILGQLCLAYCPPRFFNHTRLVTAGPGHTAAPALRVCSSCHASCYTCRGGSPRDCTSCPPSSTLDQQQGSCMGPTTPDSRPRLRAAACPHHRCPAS
assay comment: enzyme inhibition assay, fluorogenic substrate PyrRTKR-MCA
No end group written: not given here.
value type: Ki (µM)

binder | units label | Ki
LLLLLRVKR-NH2 (also called 5 Leu; multi-leucine peptide containing five leucines) [LLLLLRVKR-NH2] | µM | 0.164
LLLLRVKR-NH2 (also called 4 Leu; Multi-Leu (ML)) [LLLLRVKR-NH2] | µM | 0.205
